Biological target: AR protein (Homo sapiens, UniProt P10275, T878A)
Construct: degradation activity of the compounds disclosed in the present disclosure on AR protein in LNCaP cells; host or cells: LNCaP FGC
Sequence (P10275 1-920 T878A): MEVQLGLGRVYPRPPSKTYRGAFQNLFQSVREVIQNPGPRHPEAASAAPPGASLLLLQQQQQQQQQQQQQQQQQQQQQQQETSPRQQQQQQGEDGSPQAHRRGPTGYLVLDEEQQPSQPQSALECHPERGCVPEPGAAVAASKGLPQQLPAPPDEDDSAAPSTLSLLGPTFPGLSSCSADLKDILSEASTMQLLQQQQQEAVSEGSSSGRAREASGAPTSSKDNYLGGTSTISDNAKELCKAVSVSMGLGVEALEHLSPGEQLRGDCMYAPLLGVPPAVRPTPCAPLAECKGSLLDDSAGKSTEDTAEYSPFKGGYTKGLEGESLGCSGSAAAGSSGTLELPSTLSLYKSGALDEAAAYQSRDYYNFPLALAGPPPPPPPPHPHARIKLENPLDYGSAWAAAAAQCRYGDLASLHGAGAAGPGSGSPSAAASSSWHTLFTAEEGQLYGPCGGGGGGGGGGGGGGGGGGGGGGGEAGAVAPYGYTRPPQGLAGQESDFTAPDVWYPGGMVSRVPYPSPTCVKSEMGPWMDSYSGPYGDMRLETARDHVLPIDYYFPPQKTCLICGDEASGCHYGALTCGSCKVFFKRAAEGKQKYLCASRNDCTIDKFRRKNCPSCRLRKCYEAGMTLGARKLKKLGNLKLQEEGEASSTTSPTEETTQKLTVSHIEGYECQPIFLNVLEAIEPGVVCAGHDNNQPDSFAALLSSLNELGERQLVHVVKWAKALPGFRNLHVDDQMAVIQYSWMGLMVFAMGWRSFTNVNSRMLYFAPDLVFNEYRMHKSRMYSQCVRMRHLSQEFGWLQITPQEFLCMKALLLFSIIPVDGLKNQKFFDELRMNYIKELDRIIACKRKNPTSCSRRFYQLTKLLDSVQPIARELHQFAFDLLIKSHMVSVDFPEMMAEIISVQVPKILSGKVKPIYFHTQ
Test: Degradation of AR protein in LNCaP cells (Western blot)
Format: cell-based
Settings: LNCaP, 8 h, read-out: Degradation rates of the AR protein in LNCaP cells, 10 nM (%)
Item-by-item account of inhibition at 0.01 µM

compound	subject_of_test	measurement_units	inhibition at 0.01 µM
N#Cc1ccc(O[C@H]2CC[C@H](NC(=O)c3ccc(N4CC(N5CCC6(CCc7cc8c(cc7O6)C(=O)N(C6CCC(=O)NC6=O)C8=O)CC5)C4)nn3)CC2)cc1Cl (stereo partly drawn) [Compound 25]	AR protein (Homo sapiens, UniProt P10275, T878A)	%	49
N#Cc1ccc(O[C@H]2CC[C@H](NC(=O)c3ccc(N4CC(N5CCC6(CCc7cc8c(cc7O6)C(=O)N(C6CCC(=O)NC6=O)C8)CC5)C4)nn3)CC2)cc1Cl (stereo partly drawn) [Compound 46]	AR protein (Homo sapiens, UniProt P10275, T878A)	%	35
N#Cc1ccc(O[C@H]2CC[C@H](NC(=O)c3ccc(N4CC(N5CCC6(CC5)COc5c(ccc7c5C(=O)N(C5CCC(=O)NC5=O)C7)C6)C4)nn3)CC2)cc1Cl (stereo partly drawn) [Compound 191]	AR protein (Homo sapiens, UniProt P10275, T878A)	%	-2
N#Cc1ccc(O[C@H]2CC[C@H](NC(=O)c3ccc(N4CC(N5CCC6(CCc7cc8c(cc7O6)CN(C6CCC(=O)NC6=O)C8=O)CC5)C4)nn3)CC2)cc1Cl (stereo partly drawn) [Compound 42]	AR protein (Homo sapiens, UniProt P10275, T878A)	%	29
N#Cc1ccc(O[C@H]2CC[C@H](NC(=O)c3ccc(N4CC(N5CCC6(CC5)COc5cc7c(cc56)C(=O)N(C5CCC(=O)NC5=O)C7=O)C4)nn3)CC2)cc1Cl (stereo partly drawn) [Compound 49]	AR protein (Homo sapiens, UniProt P10275, T878A)	%	24
N#Cc1ccc(O[C@H]2CC[C@H](NC(=O)c3ccc(N4CCC(N5CCC6(CC5)COc5c(ccc7c5C(=O)N(C5CCC(=O)NC5=O)C7)C6)CC4)nn3)CC2)cc1Cl (stereo partly drawn) [Compound 189]	AR protein (Homo sapiens, UniProt P10275, T878A)	%	42
